System: OVCAR-5 ovarian
Assay: NCI tumour cell line growth inhibition, 48 h
quantity.kind: TGI

Reference set, count: 2
{"columns": ["compound", "TGI"],
 "data": [
  ["NCC(Cc1ccccc1)P(=O)(O)O (configuration not stated)", "> 100 µM"],
  ["Nc1c(C(=O)c2ccccc2)nnc2ccccc12", "> 100 µM"]
]}

Which TGI value belongs to CN(c1ccc(NC(=O)NCCN2CCOCC2)cc1)c1ccnc(Nc2ccc(CS(C)(=O)=O)cc2)n1 ?
> 25 µM

Which TGI value belongs to CC(=O)OC1CC[C@@]2(C)C(=CC[C@@H]3[C@@H]2CC[C@]2(C)C(OC(C)=O)[C@H](n4ccnc4)C[C@@H]32)C1 (some centres not stated) ?
> 100 µM

Which TGI value belongs to OC(c1cc(-c2ccc(Cl)cc2)nc2c(Cl)cccc12)C1CCCCN1 (configuration not stated) ?
3.26 µM

Which TGI value belongs to Cc1ccc(NC(=O)c2ccc(NC3=C(Cl)C(=O)N(Cc4ccccc4)C3=O)cc2)cc1Cl ?
10.2 µM

Which TGI value belongs to Cc1cc(-c2ccco2)cc(C)c1/C=C/c1cncc(-c2nn[nH]n2)c1 ?
> 25 µM
